Sourced from PubChem BioAssay AID280

- Test system: nude mice, LOX melanoma ip, survival T/C
- experiment: NCI In Vivo Anticancer Drug Screen. Data for tumor model Human Amelanotic Melanoma (LOX) (intraperitoneal) in NU/NU BALB/C (nude) mice
- assay.context: endpoint: median survival time; dose: 37.5 mg/kg/injection; schedule: Q04DX003 (ip); vehicle: water
Toxic doses and inconclusive results are not listed. The calls were made as follows: active = survival T/C of 150% or more; inactive = T/C below 125% in these data.
Select the correct class. Options are t = active, f = inactive and nothing else.

These solved cases illustrate the format of a correct answer.
{"molecule": "Oc1cccc2ccccc12", "class.assignment": "f"}
{"molecule": "[Cl][Pt][Cl].[NH-]C(CO)C(=O)O (stereo unspecified)", "class.assignment": "f"}
{"molecule": "O=NNc1ccc2cccnc2n1", "class.assignment": "t"}
{"molecule": "c1ccc2c3c(c4c(c2c1)CN(C1CCCCC1)CO4)OCN(C1CCCCC1)C3", "class.assignment": "f"}
{"molecule": "O=C1CN(CCN2CC(=O)N(CN3CCOCC3)C(=O)C2)CC(=O)N1CN1CCOCC1", "class.assignment": "f"}

Here is another molecule to look at.
Query: recorded result category for COc1ccc(OC)c(Cc2cnc3nc(N)nc(N)c3c2C)c1 in this test f

* * *

- Tested on: nude mice, LOX melanoma ip, survival T/C
- experiment: NCI In Vivo Anticancer Drug Screen. Data for tumor model Human Amelanotic Melanoma (LOX) (intraperitoneal) in NU/NU BALB/C (nude) mice
- assay.context: endpoint: median survival time; dose: 150.0 mg/kg/injection; schedule: Q04DX003 (ip); vehicle: saline with Tween-80
Toxic doses and inconclusive results are not listed. The calls were made as follows: active = survival T/C of 150% or more; inactive = T/C below 125% in these data.
Would you mind answering with one of these outcomes? active, inactive

Answered examples (5):
{"compound": "COc1ccc(C[C@@H]2NC[C@@H](O)[C@@H]2OC(C)=O)cc1", "class.assignment": "inactive"}
{"compound": "CS(=O)(=O)Nc1ccc(C(=O)CCN2CCCCCC2)cc1", "class.assignment": "inactive"}
{"compound": "O=C1c2ccccc2C(Cl)(c2ccc(Cl)cc2)c2ccc(Cl)cc21 (stereo unspecified)", "class.assignment": "inactive"}
{"compound": "O=C(Nc1cccc(Cl)c1)ON1C(=O)C2C(C1=O)C1(Cl)C(Cl)C(Cl)C2(Cl)C1(Cl)Cl (stereo unspecified)", "class.assignment": "inactive"}
{"compound": "CCN(CC)c1ccc2[nH]c3c(C(N)=O)cc(=O)c(=O)c=3oc2c1", "class.assignment": "inactive"}

Per the records of this test, what outcome belongs to CCOC(=O)C1=C(C)O/C(=C/c2cccc(Cl)c2)C1=O ? active

* * *

- Tested on: nude mice, LOX melanoma ip, survival T/C
- experiment: NCI In Vivo Anticancer Drug Screen. Data for tumor model Human Amelanotic Melanoma (LOX) (intraperitoneal) in NU/NU BALB/C (nude) mice
- assay.context: endpoint: median survival time; dose: 60.0 mg/kg/injection; schedule: Q04DX003 (ip); vehicle: saline with Tween-80; higher = longer survival
Inconclusive results and toxic doses are left out.
readout.kind: T/C

Check out these entries, answers already filled in.
{"compound": "C=COC(=O)C(Cc1ccccc1)NC(=O)OCc1ccccc1 (centres undefined)", "T/C": "95 % of control"}
{"compound": "N#Cc1c(N)[nH]c2ccc(Sc3ccccc3)cc12", "T/C": "94 % of control"}
{"compound": "CC(O)C1(O)C(O)CC(OC2c3cc4c(c(O)c3[C@@H]3C[C@@]2(C)OC32C=c3cc[nH]c3=N2)C(=O)c2cccc(O)c2C4=O)OC1C (some centres undefined)", "T/C": "91 % of control"}

// moving on: another record for T/C
For Cn1c(=S)sc2nc3ccccc3n2c1=S the compound record lists T/C as 100 % of control

* * *

- Test system: nude mice, LOX melanoma ip, survival T/C
- experiment: NCI In Vivo Anticancer Drug Screen. Data for tumor model Human Amelanotic Melanoma (LOX) (intraperitoneal) in NU/NU BALB/C (nude) mice
- assay.context: endpoint: median survival time; dose: 120.0 mg/kg/injection; schedule: Q04DX003 (ip); vehicle: Klucel (hydroxypropylcellulose) (HPC)
Toxic doses and inconclusive results are not listed. Rule for the calls: active = survival T/C of 150% or more; inactive = T/C below 125% in these data.
Form entry, call: pick from active, inactive

// below: answered compounds
{"structure.smiles.string": "COC(=O)c1ccc(N=NN(C)COC(C)=O)cc1", "test.target": "nude mice, LOX melanoma ip, survival T/C", "class.assignment": "active"}
{"structure.smiles.string": "COc1ccc2c(ccc3oc([N+](=O)[O-])cc32)c1", "test.target": "nude mice, LOX melanoma ip, survival T/C", "class.assignment": "active"}
{"structure.smiles.string": "COc1cc2c(c(OC)c1OC)-c1ccc(OC)c(=O)cc1[C@@H](N)CC2", "test.target": "nude mice, LOX melanoma ip, survival T/C", "class.assignment": "active"}

Write down the call the test reported for this compound. Item: O=S(=O)(c1cccc(N=C=S)c1)c1cccc(N=C=S)c1 inactive

* * *

- Tested on: nude mice, LOX melanoma ip, survival T/C
- experiment: NCI In Vivo Anticancer Drug Screen. Data for tumor model Human Amelanotic Melanoma (LOX) (intraperitoneal) in NU/NU BALB/C (nude) mice
- assay.context: endpoint: median survival time; dose: 2.5 mg/kg/injection; schedule: Q04DX003 (ip); vehicle: Klucel (hydroxypropylcellulose) (HPC); higher = longer survival
Inconclusive results and toxic doses are left out.
readout.kind: T/C

// below: answered compounds
{"compound": "C=C(C)/C([O-])=N/[N+](C)(C)CC(O)CCCCCCCCCCCC (centres undefined)", "T/C": "88 % of control"}
{"compound": "COc1cc2c(c(OC)c1O)-c1ccc(OC)c(=O)cc1[C@@H](NC(=O)C(F)(F)F)CC2", "T/C": "122 % of control"}
{"compound": "CCOC(=O)NC1CCc2cc(OC)c(OC)c(OC)c2-c2ccc(OC)c(=O)cc21 (centres undefined)", "T/C": "154 % of control"}

# evaluate next
The recorded T/C with nude mice, LOX melanoma ip, survival T/C for O=C1C(=O)c2cccnc2-c2ncccc21 was 94 % of control

* * *

- System: nude mice, LOX melanoma ip, survival T/C
- experiment: NCI In Vivo Anticancer Drug Screen. Data for tumor model Human Amelanotic Melanoma (LOX) (intraperitoneal) in NU/NU BALB/C (nude) mice
- assay.context: endpoint: median survival time; dose: 37.5 mg/kg/injection; schedule: Q04DX003 (ip); vehicle: Klucel (hydroxypropylcellulose) (HPC); higher = longer survival
Toxic doses and inconclusive results are not listed.
readout.kind: T/C

{"compound": "C=C1c2cccc(O)c2C(O)=C2C(=O)[C@]3(O)C(O)=C(C(N)=O)C(=O)[C@@H](N(C)C)[C@@H]3[C@@H](O)[C@H]12", "T/C": "94 % of control"}
{"compound": "CCCCCC[Se][Se]CCCCCC", "T/C": "98 % of control"}
{"compound": "CC1=CC=CC(C)(C)C(O)C1=O (stereo not given)", "T/C": "94 % of control"}
{"compound": "CCCCCNc1ncnc2c(C)[nH]nc12", "T/C": "94 % of control"}

Looking up C=CCOc1cc2c(cc1C(C)c1ccc(OC)cc1)OCO2 (stereo not given) , I found its T/C recorded as 101 % of control

* * *

Listed molecules paired with reported T/C
- System: nude mice, LOX melanoma ip, survival T/C
- experiment: NCI In Vivo Anticancer Drug Screen. Data for tumor model Human Amelanotic Melanoma (LOX) (intraperitoneal) in NU/NU BALB/C (nude) mice
- assay.context: endpoint: median survival time; dose: 62.5 mg/kg/injection; schedule: Q04DX003 (ip); vehicle: saline with Tween-80; higher = longer survival
Toxic doses and inconclusive results are not listed.

{"molecule": "Cc1cc2c(=O)cc(-c3ccccc3)oc2c(C(=O)O)c1C", "readout.kind": "T/C", "data.value": "95 % of control"}
{"molecule": "NC(=S=O)C(N)=S=O", "readout.kind": "T/C", "data.value": "109 % of control"}
{"molecule": "COC(=O)C1C2CCCN2OC1(C)CO (centres undefined)", "readout.kind": "T/C", "data.value": "111 % of control"}

Looking up CCC(c1ccc(O)cc1)C(CC)c1ccc(OCCN)cc1 (centres undefined) , I found its T/C recorded as 88 % of control

* * *

- System: nude mice, LOX melanoma ip, survival T/C
- experiment: NCI In Vivo Anticancer Drug Screen. Data for tumor model Human Amelanotic Melanoma (LOX) (intraperitoneal) in NU/NU BALB/C (nude) mice
- assay.context: endpoint: median survival time; dose: 150.0 mg/kg/injection; schedule: Q04DX003 (ip); vehicle: suspension in saline
Toxic doses and inconclusive results are not listed. The calls were made as follows: active = survival T/C of 150% or more; inactive = T/C below 125% in these data.
Field 'call' accepts T (active), F (inactive)

Would you please look over these solved cases?
{"compound": "CC(=O)OCC1OC(n2ncc(=O)[nH]c2=O)C(OC(C)=O)C1OC(C)=O (centres undefined)", "class.assignment": "F"}
{"compound": "Nc1nc2n[nH]nc2c(=O)[nH]1", "class.assignment": "T"}
{"compound": "CN(C)C(=O)Nc1ccc(Cl)cc1", "class.assignment": "F"}

# fetch the recorded call for CC1=NN(c2cccc(S(=O)(=O)O)c2)C(=O)C1N=Nc1cc(Cl)cc(S(=O)(=O)O)c1O.CC1=NN(c2cccc(S(=O)(=O)O)c2)C(=O)C1N=Nc1cc(Cl)cc(S(=O)(=O)O)c1O.[Cr] (centres undefined) here F

// return assay outcome for NC(=O)CCC(N)C(=O)O (centres undefined) F

Hi, do you know how CC/C(=C(\c1ccccc1)c1ccc(OCCN(C)C)cc1)c1ccccc1 came out in this test? F

// outcome(item) with item = N[C@@H](Cc1c[nH]c2ccccc12)C(=O)Nc1nncs1 F

Could you please tell me the result logged for Cc1ccc2nc(-c3ccc4nc(-c5ccc(N=Nc6ccc(-c7nc8ccc(-c9nc%10ccc(C)c(S(=O)(=O)O)c%10s9)cc8s7)cc6)cc5)sc4c3)sc2c1S(=O)(=O)O in this assay? F

# lookup: test call for NC(Cn1ccc(=O)c(O)c1)C(=O)O (centres undefined) F
